Taken from PubChem BioAssay AID1619.

biological target: Leucine aminopeptidase (Plasmodium falciparum (isolate 3D7)); experiment: P. falciparum M17LAP inhibitors, primary screen, biochemical, fluorogenic H-Leu-NHMec substrate, 1536-well (AID 1619); settings: recombinant M17LAP, H-Leu-NHMec fluorogenic kinetic assay; at 30 µM; hits give high values;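 further: plate controls were full reaction with DMSO carrier for no effect and no enzyme background for full effect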
Screen size: about 220,000 compounds; about 830 (0.38%) were called active. Only a sample is shown. Entries with a potency or affinity are not part of this list.
PROPERTY: inhibition (%)

- COMPOUND: "Cc1ccccc1/C=N/N=C1/NC(=O)CCS1"
  PROPERTY: "inhibition"
  EXPERIMENTAL RESULT: 23.8
- COMPOUND: "O=C(CSCCO)Nc1ccc(C2CCCCC2)cc1"
  PROPERTY: "inhibition"
  EXPERIMENTAL RESULT: 6.11
- COMPOUND: "CCn1c(O)c(N=N)c2ccccc21"
  PROPERTY: "inhibition"
  EXPERIMENTAL RESULT: 12.4
- COMPOUND: "CCOC(=O)c1c(C)[nH]c(C(=O)/C(C#N)=C/c2ccc(OC)c(OC)c2)c1C"
  PROPERTY: "inhibition"
  EXPERIMENTAL RESULT: 9.47
- COMPOUND: "c1ccc(CN2c3ccccc3-c3nc4ccccc4n3C2c2ccccn2)cc1 (centres undefined)"
  PROPERTY: "inhibition"
  EXPERIMENTAL RESULT: 1.51
- COMPOUND: "Cc1ccc(C(=O)Nc2nccs2)cc1"
  PROPERTY: "inhibition"
  EXPERIMENTAL RESULT: 2.76
- COMPOUND: "CCCCOc1ccc(CC(=O)NCC(=O)O)cc1"
  PROPERTY: "inhibition"
  EXPERIMENTAL RESULT: 4.31
- COMPOUND: "CCSc1ncc(Cl)c(C(=O)Nc2ccccc2)n1"
  PROPERTY: "inhibition"
  EXPERIMENTAL RESULT: -6.07
- COMPOUND: "COc1ccc(-c2cc(=O)oc3cc(OCC(C)=O)ccc23)cc1"
  PROPERTY: "inhibition"
  EXPERIMENTAL RESULT: 10.9
- COMPOUND: "CCCc1nnc(SCC(=O)Nc2ccc(OCC)cc2)n1N"
  PROPERTY: "inhibition"
  EXPERIMENTAL RESULT: 30.4
- COMPOUND: "CCCCOc1ccc(C(=O)O)cc1"
  PROPERTY: "inhibition"
  EXPERIMENTAL RESULT: 23.4
- COMPOUND: "COc1ccc(C(O)P(=O)(O)CCc2ccccc2)cc1 (centres undefined)"
  PROPERTY: "inhibition"
  EXPERIMENTAL RESULT: 21.7
- COMPOUND: "COc1ccc(NC(=O)Cc2c(F)cccc2Cl)c(OC)c1"
  PROPERTY: "inhibition"
  EXPERIMENTAL RESULT: -1.9
- COMPOUND: "O=C(COC(=O)c1ccc(S(=O)(=O)NCc2ccco2)cc1)Nc1ncc(Cl)cc1Cl"
  PROPERTY: "inhibition"
  EXPERIMENTAL RESULT: -2.24
- COMPOUND: "CSc1ncc(Cl)c(C(=O)Nc2nnc(SC/C=C/c3ccccc3)s2)n1"
  PROPERTY: "inhibition"
  EXPERIMENTAL RESULT: 29.5
- COMPOUND: "Cc1ccc2nc(C(O)C(O)c3nc4ccc(C)cc4[nH]3)[nH]c2c1 (centres undefined)"
  PROPERTY: "inhibition"
  EXPERIMENTAL RESULT: 12.8
- COMPOUND: "CC(=O)Nc1cccc(C(=O)OCc2ccc([N+](=O)[O-])cc2)c1"
  PROPERTY: "inhibition"
  EXPERIMENTAL RESULT: 1.17
- COMPOUND: "Nn1cnnc1SCC(=O)Nc1ccc(C2CCCCC2)cc1"
  PROPERTY: "inhibition"
  EXPERIMENTAL RESULT: -2.76
- COMPOUND: "COc1ccc(C)cc1NC(=O)C(OC(=O)CNC(=O)c1ccc(Br)cc1)c1ccccc1 (centres undefined)"
  PROPERTY: "inhibition"
  EXPERIMENTAL RESULT: -14.5
